B1: Gamma-crystallin C, residues 4 to 79; numbered along this chain, P07315 (parent)
chain: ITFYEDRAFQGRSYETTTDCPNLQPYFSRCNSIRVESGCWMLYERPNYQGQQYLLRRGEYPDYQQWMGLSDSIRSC

Variants of: B1
Assay: abundance fitness (aPCA) (normalised: wild type 0, dead -1); higher = more abundant; growth selection in yeast, the domain comes from the species named
Conditions: Homo sapiens
abundance fitness: recorded values
measure: abundance fitness

- L54A: -0.016
- C39A: -0.051
- E59L: -0.084
- I33P: -0.756
- G50I: -0.806
- Q10R: -0.082
- Q52C: -0.138
- S28P: -0.115
- G50H: -0.857
- S37W: -0.113
- L55A: -0.368
- C20S: 0.104
- T16S: -0.034
- G50V: -0.788
- S13R: 0.03
- G58D: 0.251
- C20K: -0.243
- W66Q: 0.046
- S32K: -0.953
- E59A: -0.07
- R12F: 0.026
- C20G: -0.058
- M67D: -0.106
- R74W: 0.119
- R74M: 0.007
- C76I: 0.074
